Hey, just so you know, these numbers are from patent US20220267462A1.

Target: T1, human EpCAM protein (human, UniProt P16422 24-265, biotinylated in the Octet assays (site not stated))
T1 construct: also called hu EpCAM; biotinylated human EpCAM protein
T1 sequence: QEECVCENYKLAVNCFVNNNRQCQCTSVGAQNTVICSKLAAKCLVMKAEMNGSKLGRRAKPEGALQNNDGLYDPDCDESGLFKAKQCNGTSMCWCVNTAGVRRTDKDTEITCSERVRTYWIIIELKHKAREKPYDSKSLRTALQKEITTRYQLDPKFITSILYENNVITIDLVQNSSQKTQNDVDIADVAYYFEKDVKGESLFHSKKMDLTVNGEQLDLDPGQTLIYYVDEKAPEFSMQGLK
Assay: colorimetric ELISA
REPORTED_ENDPOINT: Human EpCAM/Control
Answers are plain numbers.

Below, each entry is followed by its recorded Human EpCAM/Control result.
BINDER	Human EpCAM/Control
EPL129 (VHH) VHH: QVQLQESGGGLVQAGGSLRLSCAASGFAFGNHWMYWYRQAPGRGRELVASISSGGSTNYVDSVKGRFTISRDNARNTVYLQMYSLRPEDTAVYYCGTSDNWGQGTQVTVSS	20
EPL189 (VHH) VHH: QVQLQESGGGLVQPGGSLRLSCAASGRINSINTMGWYRQAPGNQRELVAEITRGGTTNYADSVQGRYAISRDNAKNLVYLQMNSLKPEDTDVYYCNAQTFPTFSRPTGLDYWGQGTQVTVSS	12
EPL57 (VHH) VHH: QVQLQESGGGLVHTGGSLRLSCAFSGDTFLRYAMGWFRQAPGKEREFVAAITWNGGNTDYADSLKGRFTISRDNTKNTVYLQMNSLRPEDTAVYYCAADLTFGLASSHYQYDYWGQGTQVTVSS	14
EPL20 (VHH) VHH: QVQLQESGGGLVQAGGSLKLSCAASGNVFRAATMAWYRQAPEKQREMVATIASGGTTNYADFVKGRFTISRDNAKNTVYLQMNTLKPEDTAVYYCNAGYLTSLGPKNYWGQGTQVTVSS	6
EPL13 (VHH) VHH: QVQLQESGGGLVQPGGSLRLSCAASGFAFGNHWMYWYRQAPGRGRELVASISSGGSTNYVDSVKGRFTISRDNARNTVYLQMYSLKPEDTAVYYCGTSDNWGQGTQVTVSS	17

Hi there! I need Human EpCAM/Control for each item below, if you can.
1. EPL49 (VHH) VHH: QVQLQESGGGLVQAGGSLRLSCAPSGRTSSIFGMGWFRQAPGKEREFVASINWSGGSTSYADSVKGRFTISRDNAKNEMYLQMNSLKFEDTAVYVCAAAVLTNKPSWNFWGQGTQVTVSS
2. EPL117 (VHH) VHH: QVQLQESGGGLVQAGGSLRLSCAASGNIVRMTNMAWYRQAPGKQREFVATISAGGSTTYVDSVKDRFTISRDNTKNTVYLQMNYLKPEDTAVYYCATGSILTNRGAIPGSWGHGTQVTVSS
3. EPL60 (VHH) VHH: QVQLQESGGGLVQAGGSLRLSCAASEYILSMYRMAWYRQAPGKVRELVADMSSGGTTNYADFVKGRFTISRDNDRNTVYLQMNRLQPEDTAAYYCNVAGRTGPPSYDAFNNWGQGTQVTVSS

Result:
8
4
10
